- Test Details: Binding affinity to N,N'-Ac2-L-Lys-D-Ala-D-Ala (unknown origin)
Quantity Kind: Ka (×10⁵ /M)
Supply the numeric figure in ×10⁵ /M, leaving out any unit text.

Example entries begin here.
# Structure String, Quantitative Readout
data = [
    ("CN[C@H](CC(C)C)C(=O)N[C@H]1C(=O)N[C@@H](CC(N)=O)C(=O)N[C@H]2C(=O)N[C@H]3C(=O)N[C@H](C(=O)N[C@H](C(=O)OC)c4cc(OC)cc(OC)c4-c4cc3ccc4OC)[C@H](O)c3ccc(c(Cl)c3)Oc3cc2cc(c3OC)Oc2ccc(cc2C(=O)OC)[C@H]1O", 1),
    ("CN[C@H](CC(C)C)C(=O)N[C@H]1C(=O)N[C@@H](CC(N)=O)C(=O)N[C@H]2C(=O)N[C@H]3C(=O)N[C@H](C(=O)N[C@H](C(=O)OC)c4cc(OC)cc(OC)c4-c4cc3ccc4OC)[C@H](O)c3ccc(c(Cl)c3)Oc3cc2cc(c3OC)Oc2ccc(cc2Cl)[C@H]1O", 1.3),
    ("CN[C@H](CC(C)C)C(=O)N[C@H]1C(=O)N[C@@H](CC(N)=O)C(=O)N[C@H]2C(=O)N[C@H]3C(=O)N[C@H](C(=O)N[C@H](C(=O)O)c4cc(O)cc(O)c4-c4cc3ccc4O)[C@H](O)c3ccc(c(Cl)c3)Oc3cc2cc(c3O)Oc2ccc(cc2)[C@H]1O", 0.68),
    ("CN[C@H](CC(C)C)C(=O)N[C@H]1C(=O)N[C@@H](CC(N)=O)C(=O)N[C@H]2C(=O)N[C@H]3C(=O)N[C@H](C(=O)N[C@H](C(=O)OC)c4cc(OC)cc(OC)c4-c4cc3ccc4OC)[C@H](O)c3ccc(c(Cl)c3)Oc3cc2cc(c3OC)Oc2ccc(cc2[N+](=O)[O-])[C@H]1O", 0.097),
    ("CN[C@H](CC(C)C)C(=O)N[C@H]1C(=O)N[C@@H](CC(N)=O)C(=O)N[C@H]2C(=O)N[C@H]3C(=O)N[C@H](C(=O)N[C@H](C(=O)OC)c4cc(OC)cc(OC)c4-c4cc3ccc4OC)[C@H](O)c3ccc(c(Cl)c3)Oc3cc2cc(c3OC)Oc2ccc(cc2Br)[C@H]1O", 1.1),
    ("CN[C@H](CC(C)C)C(=O)N[C@H]1C(=O)N[C@@H](CC(N)=O)C(=O)N[C@H]2C(=O)N[C@H]3C(=O)N[C@H](C(=O)N[C@H](C(=O)OC)c4cc(OC)cc(OC)c4-c4cc3ccc4OC)[C@H](O)c3ccc(c(Cl)c3)Oc3cc2cc(c3OC)Oc2ccc(cc2C)[C@H]1O", 1.2),
]

Kindly review the next molecule as well.
## Input Fill in Ka for record `CN[C@H](CC(C)C)C(=O)N[C@H]1C(=O)N[C@@H](CC(N)=O)C(=O)N[C@H]2C(=O)N[C@H]3C(=O)N[C@H](C(=O)N[C@H](C(=O)O)c4cc(O)cc(O)c4-c4cc3ccc4O)[C@H](O)c3ccc(c(Cl)c3)Oc3cc2cc(c3O)Oc2ccc(cc2O)[C@H]1O`
## Output 0.53

----------
- System: Enterococcus faecalis
- Test Details: Antimicrobial activity against VanA vancomycin-resistant Enterococcus faecalis BM4166
- Type: functional
Known MIC of a selection of compounds

Example entries begin here.
# Compound, MIC
rows = [
    ("CN[C@H](CC(C)C)C(=O)N[C@H]1C(=O)N[C@@H](CC(N)=O)C(=O)N[C@H]2C(=O)N[C@H]3C(=O)N[C@H](C(=O)N[C@H](C(=O)O)c4cc(O)cc(O)c4-c4cc3ccc4O)[C@H](O)c3ccc(c(Cl)c3)Oc3cc2cc(c3O)Oc2ccc(cc2Cl)[C@H]1O [VANCOMYCIN AGLYCON]", "> 100 µg/mL"),
    ("COC(=O)[C@H]1NC(=O)[C@H]2NC(=O)[C@H](NC(=O)[C@@H]3NC(=O)[C@H]4NC(=O)[C@@H](Cc5ccc(c(Cl)c5)Oc5cc3cc(c5OC)Oc3ccc(cc3Cl)[C@H]2O)NC(=O)[C@H](N)c2ccc(OC)c(c2)Oc2cc(OC)cc4c2)c2ccc(OC)c(c2)-c2c(OC)cc(OC)cc21", "> 100 µg/mL"),
    ("CN[C@H](CC(C)C)C(=O)N[C@H]1C(=O)N[C@@H](CC(N)=O)C(=O)N[C@H]2C(=O)N[C@H]3C(=O)N[C@H](C(=O)N[C@H](C(=O)OC)c4cc(OC)cc(OC)c4-c4cc3ccc4OC)[C@H](O)c3ccc(c(Cl)c3)Oc3cc2cc(c3OC)Oc2ccc(cc2Cl)[C@H]1O", "50 µg/mL"),
    ("N[C@H]1C(=O)N[C@@H]2Cc3ccc(c(Cl)c3)Oc3cc4cc(c3O)Oc3ccc(cc3Cl)[C@@H](O)[C@@H]3NC(=O)[C@H](NC(=O)[C@@H]4NC(=O)[C@@H](NC2=O)c2cc(O)cc(c2)Oc2cc1ccc2O)c1ccc(O)c(c1)-c1c(O)cc(O)cc1[C@@H](C(=O)O)NC3=O [TEICOPLANIN AGLYCON]", "> 100 µg/mL"),
]

Kindly review the next compound as well.
## Input Fill in MIC for record CN[C@H](CC(C)C)C(=O)N[C@H]1C(=O)N[C@@H](CC(N)=O)C(=O)N[C@H]2C(=O)N[C@H]3C(=O)N[C@H](C(=O)N[C@H](C(=O)O)c4cc(O)cc(O)c4-c4cc3ccc4O)[C@H](O)c3ccc(c(Cl)c3)Oc3cc2cc(c3O[C@@H]2O[C@H](CO)[C@@H](O)[C@H](O)[C@H]2O[C@H]2C[C@](C)(N)[C@H](O)[C@H](C)O2)Oc2ccc(cc2Cl)[C@H]1O [VANCOMYCIN]
## Output > 100 µg/mL

----------
- Tested on: Staphylococcus aureus
- Test Details: Antimicrobial activity against vancomycin-sensitive Staphylococcus aureus ATCC 25923 after 24 hrs by microtiter plate assay
- Type: functional
- Run Conditions: ATCC 25923, 24 h
Known MIC of a selection of compounds
Supply the numeric figure in mg/L, leaving out any unit text.

Example entries begin here.
# Compound, Measurement Units, MIC
data = [
    ("CN[C@H](CC(C)C)C(=O)N[C@H]1C(=O)N[C@@H](CC(N)=O)C(=O)N[C@H]2C(=O)N[C@H]3C(=O)N[C@H](C(=O)N[C@H](C(=O)OC)c4cc(OC)cc(OC)c4-c4cc3ccc4OC)[C@H](O)c3ccc(c(Cl)c3)Oc3cc2cc(c3OC)Oc2ccc(cc2C#N)[C@H]1O", "mg/L", 2.5),
    ("CN[C@H](CC(C)C)C(=O)N[C@H]1C(=O)N[C@@H](CC(N)=O)C(=O)N[C@H]2C(=O)N[C@H]3C(=O)N[C@H](C(=O)N[C@H](C(=O)O)c4cc(O)cc(O)c4-c4cc3ccc4O)[C@H](O)c3ccc(c(Cl)c3)Oc3cc2cc(c3O)Oc2ccc(cc2Cl)[C@H]1O [VANCOMYCIN AGLYCON]", "mg/L", 1.25),
    ("CN[C@H](CC(C)C)C(=O)N[C@H]1C(=O)N[C@@H](CC(N)=O)C(=O)N[C@H]2C(=O)N[C@H]3C(=O)N[C@H](C(=O)N[C@H](C(=O)O)c4cc(O)cc(O)c4-c4cc3ccc4O)[C@H](O)c3ccc(c(Cl)c3)Oc3cc2cc(c3O)Oc2ccc(cc2O)[C@H]1O", "mg/L", 5),
    ("CN[C@H](CC(C)C)C(=O)N[C@H]1C(=O)N[C@@H](CC(N)=O)C(=O)N[C@H]2C(=O)N[C@H]3C(=O)N[C@H](C(=O)N[C@H](C(=O)O)c4cc(O)cc(O)c4-c4cc3ccc4O)[C@H](O)c3ccc(c(Cl)c3)Oc3cc2cc(c3O[C@@H]2O[C@H](CO)[C@@H](O)[C@H](O)[C@H]2O[C@H]2C[C@](C)(N)[C@H](O)[C@H](C)O2)Oc2ccc(cc2Cl)[C@H]1O [VANCOMYCIN]", "mg/L", 1.25),
]

## Input Fill in MIC for record `CN[C@H](CC(C)C)C(=O)N[C@H]1C(=O)N[C@@H](CC(N)=O)C(=O)N[C@H]2C(=O)N[C@H]3C(=O)N[C@H](C(=O)N[C@H](C(=O)O)c4cc(O)cc(O)c4-c4cc3ccc4O)[C@H](O)c3ccc(c(Cl)c3)Oc3cc2cc(c3O)Oc2ccc(cc2)[C@H]1O`
## Output 5

## Input Fill in MIC for record `CN[C@H](CC(C)C)C(=O)N[C@H]1C(=O)N[C@@H](CC(N)=O)C(=O)N[C@H]2C(=O)N[C@H]3C(=O)N[C@H](C(=O)N[C@H](C(=O)OC)c4cc(OC)cc(OC)c4-c4cc3ccc4OC)[C@H](O)c3ccc(c(Cl)c3)Oc3cc2cc(c3OC)Oc2ccc(cc2N=[N+]=[N-])[C@H]1O`
## Output 1.25

## Input Fill in MIC for record `CN[C@H](CC(C)C)C(=O)N[C@H]1C(=O)N[C@@H](CC(N)=O)C(=O)N[C@H]2C(=O)N[C@H]3C(=O)N[C@H](C(=O)N[C@H](C(=O)OC)c4cc(OC)cc(OC)c4-c4cc3ccc4OC)[C@H](O)c3ccc(c(Cl)c3)Oc3cc2cc(c3OC)Oc2ccc(cc2OC)[C@H]1O`
## Output 2.5

## Input Fill in MIC for record `CN[C@H](CC(C)C)C(=O)N[C@H]1C(=O)N[C@@H](CC(N)=O)C(=O)N[C@H]2C(=O)N[C@H]3C(=O)N[C@H](C(=O)N[C@H](C(=O)OC)c4cc(OC)cc(OC)c4-c4cc3ccc4OC)[C@H](O)c3ccc(c(Cl)c3)Oc3cc2cc(c3OC)Oc2ccc(cc2C(F)(F)F)[C@H]1O`
## Output 2.5

## Input Fill in MIC for record `CN[C@H](CC(C)C)C(=O)N[C@H]1C(=O)N[C@@H](CC(N)=O)C(=O)N[C@H]2C(=O)N[C@H]3C(=O)N[C@H](C(=O)N[C@H](C(=O)OC)c4cc(OC)cc(OC)c4-c4cc3ccc4OC)[C@H](O)c3ccc(c(Cl)c3)Oc3cc2cc(c3OC)Oc2ccc(cc2N(C)C)[C@H]1O`
## Output 5

## Input Fill in MIC for record `CN[C@H](CC(C)C)C(=O)N[C@H]1C(=O)N[C@@H](CC(N)=O)C(=O)N[C@H]2C(=O)N[C@H]3C(=O)N[C@H](C(=O)N[C@H](C(=O)OC)c4cc(OC)cc(OC)c4-c4cc3ccc4OC)[C@H](O)c3ccc(c(Cl)c3)Oc3cc2cc(c3OC)Oc2ccc(cc2B(O)O)[C@H]1O`
## Output 5

## Input Fill in MIC for record `CN[C@H](CC(C)C)C(=O)N[C@H]1C(=O)N[C@@H](CC(N)=O)C(=O)N[C@H]2C(=O)N[C@H]3C(=O)N[C@H](C(=O)N[C@H](C(=O)OC)c4cc(OC)cc(OC)c4-c4cc3ccc4OC)[C@H](O)c3ccc(c(Cl)c3)Oc3cc2cc(c3OC)Oc2ccc(cc2I)[C@H]1O`
## Output 2.5

## Input Fill in MIC for record `CN[C@H](CC(C)C)C(=O)N[C@H]1C(=O)N[C@@H](CC(N)=O)C(=O)N[C@H]2C(=O)N[C@H]3C(=O)N[C@H](C(=O)N[C@H](C(=O)OC)c4cc(OC)cc(OC)c4-c4cc3ccc4OC)[C@H](O)c3ccc(c(Cl)c3)Oc3cc2cc(c3OC)Oc2ccc(cc2C)[C@H]1O`
## Output 2.5

## Input Fill in MIC for record `CN[C@H](CC(C)C)C(=O)N[C@H]1C(=O)N[C@@H](CC(N)=O)C(=O)N[C@H]2C(=O)N[C@H]3C(=O)N[C@H](C(=O)N[C@H](C(=O)OC)c4cc(OC)cc(OC)c4-c4cc3ccc4OC)[C@H](O)c3ccc(c(Cl)c3)Oc3cc2cc(c3OC)Oc2ccc(cc2C(=O)OC)[C@H]1O`
## Output 2.5

## Input Fill in MIC for record `CN[C@H](CC(C)C)C(=O)N[C@H]1C(=O)N[C@@H](CC(N)=O)C(=O)N[C@H]2C(=O)N[C@H]3C(=O)N[C@H](C(=O)N[C@H](C(=O)OC)c4cc(OC)cc(OC)c4-c4cc3ccc4OC)[C@H](O)c3ccc(c(Cl)c3)Oc3cc2cc(c3OC)Oc2ccc(cc2Cl)[C@H]1O`
## Output 1.25

Origin of the recorded values: ChEMBL document CHEMBL2346573
